# target_or_system: GSK3α (GST-full length GSK3α) (Homo sapiens (Human), UniProt P49840)
# Sequence (P49840 whole entry): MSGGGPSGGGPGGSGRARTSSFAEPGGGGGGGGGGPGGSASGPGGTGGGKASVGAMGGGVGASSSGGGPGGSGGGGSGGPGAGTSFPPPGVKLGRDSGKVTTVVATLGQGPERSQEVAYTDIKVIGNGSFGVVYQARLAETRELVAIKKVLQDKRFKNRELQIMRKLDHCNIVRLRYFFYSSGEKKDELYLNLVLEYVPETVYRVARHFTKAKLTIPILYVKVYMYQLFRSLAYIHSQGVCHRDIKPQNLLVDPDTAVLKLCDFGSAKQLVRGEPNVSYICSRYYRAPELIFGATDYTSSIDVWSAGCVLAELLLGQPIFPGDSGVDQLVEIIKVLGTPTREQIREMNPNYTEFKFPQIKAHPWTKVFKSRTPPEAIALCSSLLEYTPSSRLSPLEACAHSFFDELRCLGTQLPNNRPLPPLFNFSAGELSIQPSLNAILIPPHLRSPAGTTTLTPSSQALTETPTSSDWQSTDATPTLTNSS
# experiment_description: GSK3α TR-FRET kinase assay
# Type: biochemical
# test_context: 1 nM GSK3α, 4 μM ATP, 30 minute preincubation, Table 16; read-out: GSK3-A TR-FRET BIOCHEMICAL (TR-FRET)
experimental_endpoint: IC50

Reference set (10 entries):
- compound: "COc1cc(S(=O)(=O)N2CCC3(CC2)C2=C(CC(C)(C)CC2=O)Nc2n[nH]cc23)ccc1F [Compound 947263]"
  IC50: "≤ 100 nM"
- compound: "CCC1(c2cccc(-c3cnc4n3CCCC4)c2)C2=C(CC(C)(C)CC2=O)Nc2n[nH]cc21 (stereo not drawn) [Compound 943535]"
  IC50: "≤ 100 nM"
- compound: "CC1(C)CC(=O)C2=C(C1)Nc1n[nH]cc1C21CN(C2COC2)C1 [Compound 912076]"
  IC50: "100 to 1000 nM"
- compound: "CCC1(c2cccc(C(F)(F)F)c2)C2=C(CNC2=O)Nc2n[nH]cc21 (stereo not drawn) [Compound 913156]"
  IC50: "100 to 1000 nM"
- compound: "Cn1ccc(S(=O)(=O)N2CCC3(CC2)C2=C(Nc4n[nH]cc43)[C@@H](F)C(C)(C)CC2=O)n1 [Compound 951708]"
  IC50: "≤ 100 nM"
- compound: "CC1(C)CC(=O)C2=C(C1)Nc1n[nH]cc1[C@]21CCN(S(=O)(=O)c2ccccc2)C1 [Compound 943485]"
  IC50: "≤ 100 nM"
- compound: "CC1(C)CC(=O)C2=C(C1)Nc1n[nH]cc1C21CCCN(CC(F)(F)F)CC1 (stereo not drawn) [Compound 889576]"
  IC50: "100 to 1000 nM"
- compound: "CC[C@@]1(c2cccc(-c3cn(C)nc3C)c2)C2=C(CC(C)(C)CC2=O)Nc2n[nH]cc21 [Compound 945545]"
  IC50: "1000 to 5000 nM"
- compound: "Cc1[nH]nc2c1C1(CCCCC1)C1=C(CC(C)(C)CC1=O)N2 [Compound 883865]"
  IC50: "≤ 100 nM"
- compound: "CC1(C)CC(=O)C2=C(C1)Nc1n[nH]cc1C21CCN(S(=O)(=O)c2ccccc2)CC1 [Compound 874530]"
  IC50: "≤ 100 nM"

Prompt: What does the record list as IC50 for CC[C@]1(c2cccc(-c3ccncc3F)c2)C2=C(CC(C)(C)CC2=O)Nc2n[nH]cc21 [Compound 943519] ?
Completion: 100 to 1000 nM

Prompt: What does the record list as IC50 for CCC1(c2cccc(Nc3ncccn3)c2)C2=C(CC(C)(C)CC2=O)Nc2n[nH]cc21 (stereo not drawn) [Compound 945958] ?
Completion: 1000 to 5000 nM

Prompt: What does the record list as IC50 for CC[C@]1(c2ccccc2)C2=C(CC(C)(C)[C@@H](F)C2=O)Nc2n[nH]cc21 [Compound 957404] ?
Completion: > 5000 nM

Prompt: What does the record list as IC50 for CCC1(c2cccc(-c3ccnc(C)c3)c2)C2=C(CC3(CCOC3)CC2=O)Nc2n[nH]cc21 (stereo not drawn) [Compound 947412] ?
Completion: 1000 to 5000 nM

Prompt: What does the record list as IC50 for Cc1nccc([C@H]2CC[C@@]3(CC2)C2=C(CC(C)(C)CC2=O)Nc2n[nH]cc23)c1C [Compound 950478] ?
Completion: ≤ 100 nM

Prompt: What does the record list as IC50 for CC1(C)CC(=O)C2=C(C1)Nc1n[nH]cc1C21CN(S(=O)(=O)Cc2ccccc2)C1 [Compound 943543] ?
Completion: ≤ 100 nM

Prompt: What does the record list as IC50 for CC1(C)CC(=O)C2=C(C1)Nc1n[nH]cc1C21CC(C)(C)C1 [Compound 883864] ?
Completion: ≤ 100 nM

Prompt: What does the record list as IC50 for CC1(C)CC(=O)C2=C(C1)Nc1n[nH]cc1C21CCN(S(=O)(=O)c2cccc(Cl)c2Cl)CC1 [Compound 947249] ?
Completion: ≤ 100 nM

Prompt: What does the record list as IC50 for CC1(C)CC(=O)C2=C(C1)Nc1n[nH]cc1C21CCC(C(=O)N2CCCC2)CC1 (stereo not drawn) [Compound 945394] ?
Completion: 100 to 1000 nM

Prompt: What does the record list as IC50 for CC1(C)CC(=O)C2=C(C1)Nc1n[nH]cc1C21CN(S(=O)(=O)c2cccc(F)c2)C1 [Compound 918278] ?
Completion: ≤ 100 nM

Prompt: What does the record list as IC50 for CC1(C)CC(=O)C2=C(Nc3n[nH]cc3[C@]23CC[C@@H](C(F)(F)F)CC3)[C@@H]1F [Compound 918284] ?
Completion: ≤ 100 nM

Prompt: What does the record list as IC50 for CC1(C)CC(=O)C2=C(C1)Nc1n[nH]cc1C21CN(C(=O)OCc2ccccc2)C1 [Compound 889568] ?
Completion: 100 to 1000 nM

Prompt: What does the record list as IC50 for Cc1cc(-c2cccc3c2CCC[C@]32C3=C(CC(C)(C)CC3=O)Nc3n[nH]cc32)ccn1 [Compound 945549] ?
Completion: ≤ 100 nM

Prompt: What does the record list as IC50 for CCc1cccc(N(C)c2cccc([C@]3(CC)C4=C(CC(C)(C)CC4=O)Nc4n[nH]cc43)c2)n1 [Compound 945726] ?
Completion: 1000 to 5000 nM

Prompt: What does the record list as IC50 for CCC1(c2cccc(-c3cnnn3C)c2)C2=C(CC(C)(C)CC2=O)Nc2n[nH]cc21 (stereo not drawn) [Compound 947824] ?
Completion: 100 to 1000 nM

Prompt: What does the record list as IC50 for CC1(C)CC(=O)C2=C(C1)Nc1n[nH]cc1C21CCN(S(=O)(=O)c2cnnn2-c2ccccc2)CC1 [Compound 947466] ?
Completion: ≤ 100 nM

Prompt: What does the record list as IC50 for O=C1C2=C(Nc3n[nH]cc3C23CCOCC3)[C@@H]2CC[C@H]1C2 [Compound 912081] ?
Completion: 100 to 1000 nM

Prompt: What does the record list as IC50 for CC[C@@]1(c2cccc(-c3ccncc3O)c2)C2=C(CC(C)(C)CC2=O)Nc2n[nH]cc21 [Compound 945728] ?
Completion: 1000 to 5000 nM

Prompt: What does the record list as IC50 for CC1(C)CC(=O)C2=C(C1)Nc1n[nH]cc1[C@]21CC[C@H](c2ccncc2)CC1 [Compound 949321] ?
Completion: ≤ 100 nM

Prompt: What does the record list as IC50 for COCCn1cc(S(=O)(=O)N2CCC3(CC2)C2=C(CC(C)(C)CC2=O)Nc2n[nH]cc23)cn1 [Compound 947477] ?
Completion: ≤ 100 nM
